biological target: Human N-His6-IDE42-1019 (E. coli expressed) (Homo sapiens, UniProt P14735); construct: Human N-His6-IDE42-1019 (E. coli expressed); made in house; host or cells: E. coli (Rosetta 2 (DE3) pLysS, plasmid pTrcHis-A); test: Fluorescence anisotropy high-throughput screening assay (displacement of probe FL-6b); format: binding; conditions: final compound concentration 20 μM (6bK control 1 μM); values without asterisk
Sequence (P14735 42-1019): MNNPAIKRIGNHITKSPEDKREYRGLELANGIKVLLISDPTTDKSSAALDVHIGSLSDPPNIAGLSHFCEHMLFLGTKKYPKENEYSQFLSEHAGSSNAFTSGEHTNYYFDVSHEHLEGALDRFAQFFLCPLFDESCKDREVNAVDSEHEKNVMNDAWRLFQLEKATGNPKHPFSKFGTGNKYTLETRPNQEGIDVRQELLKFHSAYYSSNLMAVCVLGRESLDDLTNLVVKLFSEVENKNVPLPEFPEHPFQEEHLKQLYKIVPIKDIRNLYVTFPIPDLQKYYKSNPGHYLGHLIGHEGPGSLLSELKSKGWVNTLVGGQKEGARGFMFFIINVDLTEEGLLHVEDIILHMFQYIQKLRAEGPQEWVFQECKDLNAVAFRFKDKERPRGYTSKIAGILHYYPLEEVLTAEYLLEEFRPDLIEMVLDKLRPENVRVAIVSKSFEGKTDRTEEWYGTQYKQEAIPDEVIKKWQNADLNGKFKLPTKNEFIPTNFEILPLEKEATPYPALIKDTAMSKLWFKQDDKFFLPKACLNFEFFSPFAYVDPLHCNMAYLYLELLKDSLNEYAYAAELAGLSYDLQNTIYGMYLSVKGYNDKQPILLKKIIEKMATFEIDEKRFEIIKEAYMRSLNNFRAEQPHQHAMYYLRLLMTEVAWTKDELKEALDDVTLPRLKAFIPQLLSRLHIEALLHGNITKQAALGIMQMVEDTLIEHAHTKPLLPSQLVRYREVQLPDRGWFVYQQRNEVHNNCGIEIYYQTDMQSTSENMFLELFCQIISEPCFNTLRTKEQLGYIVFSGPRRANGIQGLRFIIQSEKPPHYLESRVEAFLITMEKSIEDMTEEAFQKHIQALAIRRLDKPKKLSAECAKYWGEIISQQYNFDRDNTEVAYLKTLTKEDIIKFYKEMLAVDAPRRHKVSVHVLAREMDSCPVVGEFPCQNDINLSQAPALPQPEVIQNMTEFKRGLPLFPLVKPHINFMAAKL
Label key: true means Average Z-score (Fluorescence anisotropy) under -5; false means Average Z-score (Fluorescence anisotropy) of -5 or more.

Here's what some known entries look like.
compound=COc1ccccc1NC(=O)N1CCCCN2[C@H](CO)[C@@H](c3ccc(-c4cccc(C)c4)cc3)[C@@H]2C1 qualitative_label=false
compound=COc1cccc(C#Cc2ccc([C@@H]3[C@H](CO)N4C(=O)CN(C(=O)Cc5cccnc5)C[C@@H]34)cc2)c1 qualitative_label=false
compound=Cc1ccccc1-c1ccc([C@H]2[C@@H](CO)N3CCCCN(C(=O)Cc4ccccn4)C[C@@H]23)cc1 qualitative_label=true
compound=Cc1ccccc1-c1ccc([C@H]2[C@@H](CO)N3CCCCN(S(=O)(=O)c4cn(C)cn4)C[C@H]23)cc1 qualitative_label=true
compound=Cc1ccccc1-c1ccc([C@H]2[C@@H](CO)N3CCCCN(C(=O)Nc4ccccc4)C[C@@H]23)cc1 qualitative_label=false
compound="NCCCC[C@@H]1NC(=O)/C=C/C(=O)N[C@H](C(N)=O)CCCCNC(=O)[C@@H](Cc2ccc(C(=O)c3ccccc3)cc2)NC(=O)[C@H](CC2CCCCC2)NC1=O [6bK, reference compound]" qualitative_label=true
compound="Cc1cccc(-c2ccc([C@@H]3[C@@H](CO)N4CCCCN(C(=O)c5cccnc5)C[C@@H]34)cc2)c1 [compound 296]" qualitative_label=false
compound=Cc1ccccc1-c1ccc([C@H]2[C@@H](CO)N3CCCCN(C(=O)c4cccnc4)C[C@@H]23)cc1 qualitative_label=false

Note: attention shifts to another entry.
Decide: Average Z-score (Fluorescence anisotropy) of COc1ccccc1-c1ccc([C@H]2[C@@H](CO)N3CCCCN(C(=O)NC4CCCC4)C[C@H]23)cc1 strictly below -5?
true

---

target: Human N-His6-IDE42-1019 (E. coli expressed) (Homo sapiens, UniProt P14735); construct: Human N-His6-IDE42-1019 (E. coli expressed); made in house; host or cells: E. coli (Rosetta 2 (DE3) pLysS, plasmid pTrcHis-A); assay: Fluorescence anisotropy high-throughput screening assay (displacement of probe FL-6b); type: binding; conditions: final compound concentration 20 μM (6bK control 1 μM); values without asterisk
Each record here notes measured Average Z-score (Fluorescence anisotropy).
Returns: the value as a bare number; no unit string appended.

Use the examples below as a reference point.
molecule="Cc1ccccc1-c1ccc([C@H]2[C@@H](CO)N3CCCCN(C(=O)c4cccnc4)C[C@H]23)cc1 [compound 106]" test_value=−16.48
molecule="Cc1ccccc1-c1ccc([C@@H]2[C@H]3CN(S(=O)(=O)c4cn(C)cn4)CCCCN3[C@H]2CO)cc1 [compound 868]" test_value=−18.53
molecule="Cc1ccccc1-c1ccc([C@H]2[C@H](CO)N3C(=O)CN(C(=O)c4ccncc4)C[C@@H]23)cc1 [compound 580]" test_value=−7.49
molecule="Cc1ccccc1-c1ccc([C@H]2[C@@H](CO)N3C(=O)CN(C(=O)c4cccnc4)C[C@H]23)cc1 [compound 3421]" test_value=−17.16
molecule="Cc1cccc(-c2ccc([C@@H]3[C@H]4CN(C(=O)c5cccnc5)CC(=O)N4[C@H]3CO)cc2)c1 [compound 838]" test_value=−17.68

I am curious: what Average Z-score (Fluorescence anisotropy) value has been reported for Cc1cccc(-c2ccc([C@@H]3[C@@H](CO)N4CCCCN(CCC(F)(F)F)C[C@@H]34)cc2)c1 [compound 073] ?
−0.68

I am curious: what Average Z-score (Fluorescence anisotropy) value has been reported for Cc1cccc(-c2ccc([C@@H]3[C@H]4CN(C(=O)c5ccncc5)CCCCN4[C@H]3CO)cc2)c1 [compound 316] ?
−16.96

I am curious: what Average Z-score (Fluorescence anisotropy) value has been reported for COc1cccc(C#Cc2ccc([C@@H]3[C@H](CO)N4C(=O)CN(C(C)=O)C[C@@H]34)cc2)c1 [compound 608] ?
−15.34

I am curious: what Average Z-score (Fluorescence anisotropy) value has been reported for Cc1ccccc1-c1ccc([C@H]2[C@@H](CO)N3CCCCN(S(=O)(=O)Cc4ccccc4)C[C@@H]23)cc1 [compound 236] ?
−1.64

I am curious: what Average Z-score (Fluorescence anisotropy) value has been reported for Cc1ccccc1-c1ccc([C@H]2[C@@H](CO)N3CCCCN(CC4CC4)C[C@@H]23)cc1 [compound 768] ?
−3.48

I am curious: what Average Z-score (Fluorescence anisotropy) value has been reported for COc1ccccc1-c1ccc([C@@H]2[C@@H](C#N)N(C(=O)C3CC3)[C@@H]2CO)cc1 [D1] ?
−16.97

I am curious: what Average Z-score (Fluorescence anisotropy) value has been reported for COc1ccccc1-c1ccc([C@@H]2[C@@H](C#N)N(C(=O)c3cccnc3)[C@@H]2CO)cc1 [D9] ?
−12.03

I am curious: what Average Z-score (Fluorescence anisotropy) value has been reported for Cc1ccccc1-c1ccc([C@H]2[C@@H](CO)N3CCCCN(C(=O)Nc4cccc(F)c4)C[C@@H]23)cc1 [compound 269] ?
−4.36

I am curious: what Average Z-score (Fluorescence anisotropy) value has been reported for COc1ccccc1-c1ccc([C@H]2[C@@H](CO)N3CCCCN(C(=O)c4ccncc4)C[C@H]23)cc1 [compound 586] ?
−17.17

I am curious: what Average Z-score (Fluorescence anisotropy) value has been reported for COC(=O)N1CCCCN2[C@H](CO)[C@@H](c3ccc(-c4cccc(C)c4)cc3)[C@@H]2C1 [compound 559] ?
−5.28

---

biological target: recombinant human IDE42-1019 (Homo sapiens); construct: recombinant human IDE42-1019 (R&D Systems); purchased R&D Systems; test: Protease assay with fluorogenic peptide substrate Mca-[…](Dnp)-OH; format: biochemical; conditions: fluorogenic peptide Mca-RPPGFSAFK(Dnp)-OH; apparent IC50 for compounds with submaximal inhibition; read-out: IC50 (μM) Proteolysis
Each record here notes measured IC50.
# unit: µM | format: bare number

compound="NCCCC[C@@H]1NC(=O)/C=C/C(=O)N[C@H](C(N)=O)CCCCNC(=O)[C@@H](Cc2ccc(C(=O)c3ccccc3)cc2)NC(=O)[C@H](CC2CCCCC2)NC1=O [6bK, reference compound]" u=µM test_value=0.05

I am curious: what IC50 value has been reported for COC[C@@H]1[C@@H](c2ccc(-c3ccc(F)c(C)c3C)cc2)[C@@H]2CN(S(=O)(=O)c3nccn3C)CCCCN12 ?
0.15

I am curious: what IC50 value has been reported for CCCNC(=O)N1CC(=O)N2[C@H](CO)[C@@H](c3ccc(-c4cccc(C)c4)cc3)[C@@H]2C1 ?
0.8

I am curious: what IC50 value has been reported for Cc1c(Cl)cccc1-c1ccc([C@H]2C3CN(S(=O)(=O)c4ccccc4C(F)(F)F)C/C=C\CN3[C@@H]2CO)cc1 (some centres unmarked) ?
0.01

I am curious: what IC50 value has been reported for O=S(=O)(c1ccccc1C(F)(F)F)N1C/C=C\CN2C(C1)[C@H](c1ccc(-c3cccc(Cl)c3Cl)cc1)[C@H]2CO (some centres unmarked) ?
0.008

I am curious: what IC50 value has been reported for COc1ccccc1-c1ccc([C@H]2[C@@H](CO)N[C@@H]2CNC(=O)C2CCCC2)cc1 ?
7.5

I am curious: what IC50 value has been reported for Cc1cccc(-c2ccc([C@@H]3[C@@H](CO)N4CCCCN(S(=O)(=O)c5ccc(F)cc5C(F)(F)F)C[C@@H]34)cc2)c1C ?
0.05

I am curious: what IC50 value has been reported for CC(=O)Nc1ccc(S(=O)(=O)N2CCCCN3[C@H](CO)[C@@H](c4ccc(-c5cccc(C)c5C)cc4)[C@@H]3C2)c(C)c1 ?
0.03

I am curious: what IC50 value has been reported for COC[C@@H]1[C@@H](c2ccc(-c3cccc(C)c3C)cc2)C2CN(S(=O)(=O)c3cnc(C)n3C)C/C=C\CN21 (some centres unmarked) ?
0.02

I am curious: what IC50 value has been reported for Cc1cccc(-c2ccc(C3CCN(S(=O)(=O)c4ccc5c(c4)OCO5)CC3)cc2)c1C ?
12

I am curious: what IC50 value has been reported for Cc1c(F)ccc(-c2ccc([C@@H]3[C@@H](CO)N4CCCCN(S(=O)(=O)c5cnc(C)n5C)C[C@@H]34)cc2)c1C ?
0.008

I am curious: what IC50 value has been reported for Cc1ccccc1S(=O)(=O)N1CCCCN2[C@H](CO)[C@@H](c3ccc(-c4ccccc4)cc3)[C@@H]2C1 ?
1

---

target: recombinant human IDE42-1019 (Homo sapiens); construct: recombinant human IDE42-1019 (R&D Systems); purchased R&D Systems; experiment: Protease assay with fluorogenic peptide substrate Mca-[…](Dnp)-OH; type: biochemical; conditions: fluorogenic peptide Mca-RPPGFSAFK(Dnp)-OH; apparent IC50 for compounds with submaximal inhibition; read-out: IC50 (μM) Proteolysis
Label key: 1 means IC50 under 0.5 µM; -1 means IC50 of 0.5 µM or more.

compound=Cc1cccc(-c2ccc(C3CCN(S(=O)(=O)c4cc(C(F)(F)F)cc(C(F)(F)F)c4)CC3)cc2)c1C target_system="recombinant human IDE42-1019 (Homo sapiens)" qualitative_label=-1
compound="Cc1cccc(-c2ccc([C@@H]3[C@@H](CO)N4CCCCN(S(=O)(=O)c5ccccc5C)C[C@@H]34)cc2)c1 [compound 297]" target_system="recombinant human IDE42-1019 (Homo sapiens)" qualitative_label=1
compound=COc1cccc(-c2ccc([C@@H]3[C@@H](CO)N4CCCCN(C(=O)Nc5ccncc5)C[C@@H]34)cc2)c1 target_system="recombinant human IDE42-1019 (Homo sapiens)" qualitative_label=-1
compound=Cc1cccc(-c2ccc(C3CCN(C(=O)c4ccc5nccnc5c4)CC3)cc2)c1C target_system="recombinant human IDE42-1019 (Homo sapiens)" qualitative_label=1
compound=Cc1cccc(-c2ccc([C@@H]3[C@H]4CN(C(=O)c5ccncc5)CCCCN4[C@H]3CO)cc2)c1 target_system="recombinant human IDE42-1019 (Homo sapiens)" qualitative_label=-1

Decide: IC50 of Cc1ccccc1S(=O)(=O)N1CCCCN2[C@H](CO)[C@@H](c3ccc(-c4cccc(O)c4)cc3)[C@@H]2C1 strictly below 0.5 µM?
-1

Decide: IC50 of Cc1ccccc1S(=O)(=O)N1CCC(c2ccc(-c3cccc(C)c3C)cc2)CC1 strictly below 0.5 µM?
1

Decide: IC50 of Cc1ccccc1S(=O)(=O)N1CCCCN2[C@H](CO)[C@@H](c3ccc(-c4cccc(F)c4C(F)(F)F)cc3)[C@@H]2C1 strictly below 0.5 µM?
1

Decide: IC50 of Cc1ccccc1-c1ccc([C@@H]2[C@H]3CN(C(=O)c4cccnc4)CC(=O)N3[C@H]2CO)cc1 strictly below 0.5 µM?
-1

Decide: IC50 of Cc1cccc(-c2ccc([C@H]3C4CN(S(=O)(=O)c5cnc6n5CCCCC6)C/C=C\CN4[C@@H]3CO)cc2)c1C (stereo partly drawn) strictly below 0.5 µM?
1

Decide: IC50 of Cc1ccccc1-c1ccc([C@H]2[C@@H](CO)N3C(=O)CN(C(=O)Cc4ccccn4)C[C@@H]23)cc1 strictly below 0.5 µM?
-1

Decide: IC50 of Cc1ccccc1-c1ccc([C@@H]2[C@H](CO)N3CCCCN(C(=O)NC4CCCC4)C[C@@H]23)cc1 strictly below 0.5 µM?
-1

Decide: IC50 of Cc1cccc(-c2ccc([C@@H]3[C@@H](CO)N4CCCCN(S(=O)(=O)c5ccnn5C(C)C)C[C@@H]34)cc2)c1C strictly below 0.5 µM?
1
